Biological target: Grb2 SH2 (UniProt P62993)
Sequence (P62993 whole entry, looked up): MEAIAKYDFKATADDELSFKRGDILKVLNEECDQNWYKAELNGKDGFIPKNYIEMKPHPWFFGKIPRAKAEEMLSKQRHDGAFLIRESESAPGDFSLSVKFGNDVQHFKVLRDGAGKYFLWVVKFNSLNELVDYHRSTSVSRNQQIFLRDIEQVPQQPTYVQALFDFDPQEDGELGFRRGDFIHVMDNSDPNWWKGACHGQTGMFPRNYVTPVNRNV
Assay: SH2 binding enrichment of the phosphorylated peptide, bacterial display (enrichment ratio); higher = better substrate or ligand; peptides without Tyr show the background
Lab note: compare SH2 binding enrichment against 1. Equal or greater, write true (1). Smaller, write false (0).

* FTDGQYWIRGR [ACSF3_Y466_K462T] | false (0)
* GVMLLYYGRYN [ADGRD1_Y85_T82M] | true (1)
* FLGEEYVKAVG [TF_Y674_YF] | false (0)
* ADARMYGVLPR [PLP1_Y207_W212R] | false (0)
* SIVEDYRPPFF [ACVRL1_Y421_G416S_YF] | false (0)
* QGIFGYHHFMQ [UFSP2_Y287_YF] | true (1)
* ISIFFYAKGQP [MPZ_Y82_H81Y_YF] | true (1)
* RESYKYFPSSL [CXXC1_Y218] | true (1)
* MSSLFYANALF [HOXB7_Y6_T9A_YF] | true (1)
* GLSDPYVKIHL [SYT2_Y309] | false (0)

----------
Target: FGFR1 (UniProt P11362)
Sequence (P11362 whole entry, looked up): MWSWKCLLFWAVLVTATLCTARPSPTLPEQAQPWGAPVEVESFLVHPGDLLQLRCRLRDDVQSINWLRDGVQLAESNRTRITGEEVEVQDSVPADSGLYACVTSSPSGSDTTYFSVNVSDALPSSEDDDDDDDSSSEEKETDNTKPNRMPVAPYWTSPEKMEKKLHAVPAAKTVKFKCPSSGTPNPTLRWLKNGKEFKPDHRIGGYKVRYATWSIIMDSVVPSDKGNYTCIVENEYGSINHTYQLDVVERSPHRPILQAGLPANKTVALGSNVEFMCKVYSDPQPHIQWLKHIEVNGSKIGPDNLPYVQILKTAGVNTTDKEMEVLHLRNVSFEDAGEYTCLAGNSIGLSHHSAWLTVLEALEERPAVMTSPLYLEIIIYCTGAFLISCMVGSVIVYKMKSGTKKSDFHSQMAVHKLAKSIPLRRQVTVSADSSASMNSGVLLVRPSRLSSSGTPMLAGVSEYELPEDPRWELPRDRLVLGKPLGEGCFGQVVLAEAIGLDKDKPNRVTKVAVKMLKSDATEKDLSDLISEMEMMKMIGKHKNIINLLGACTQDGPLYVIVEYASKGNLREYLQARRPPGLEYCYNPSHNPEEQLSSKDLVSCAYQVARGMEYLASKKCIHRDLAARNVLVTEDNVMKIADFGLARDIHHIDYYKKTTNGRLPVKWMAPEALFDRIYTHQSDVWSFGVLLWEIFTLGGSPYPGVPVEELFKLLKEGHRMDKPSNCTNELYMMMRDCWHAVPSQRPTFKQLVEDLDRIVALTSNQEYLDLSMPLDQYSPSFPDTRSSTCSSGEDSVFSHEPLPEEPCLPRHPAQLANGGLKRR
Test: phosphorylation enrichment, bacterial display (enrichment ratio); higher = better substrate or ligand; peptides without Tyr show the background
Lab note: compare phosphorylation enrichment against 0.6. Equal or greater, write YES. Smaller, write NO.

* SIVEDYRPPFF [ACVRL1_Y421_G416S_YF] | NO
* LRRREYQRQDY [PRKRIP1_Y90] | NO
* VYLGAYDRFLP [SLC22A5_Y486] | YES
* AHPIIYDIIEA [PYKtide_D_2014] | YES
* RLRAAYNLVKR [PFKM_Y103] | YES
* PEVSGYCHCAD [TG_Y234] | YES
* LEQRPYRRGSE [KCNJ12_Y427_E430G] | NO
* LNEWHYGGLTG [PGAM2_Y92_R90W] | NO
* GVYSRHFTTYD [CLCA1_Y661_Y661H] | NO
* ELTAKYLNFFQ [P3H4_Y181_YF] | NO
* GVTLLYFGRDN [ADGRD1_Y85_Y89D_YF] | NO
* QTWKTYVRHQQ [SFI1_Y164_Q167H] | NO
* VDEERYDIEGK [TNNI3_Y112_A116G] | NO
* MHDSNCVSKGS [PDGFRA_Y849_Y849C] | NO
* RGVTHYILQTF [SLC39A4_Y359] | YES
* LLVVLNKFRCF [PSEN1_Y154_Y154N_YF] | YES
* KPGVNYYFQVS | YES
* EEKKKYYDAKI [CASP5_Y103_T106A] | NO
* SGSIHYSCVPR [GLB1_Y57_R59C] | NO
* SVTCTYSPAVN [TP53_Y126_L130V] | YES
* KFVVVYFREID [IL17RB_Y447_YF] | NO
* GHLYAYDWISI [BEST1_Y227] | YES
* VQVAFYTVMMN [SPATA17_Y84_M86V_YF] | YES
* SYPHEYGSQEG [RBM10_Y48_R46H] | NO
* YVKEPYIQSRF [HIPK4_Y175] | NO
* DPLLTHRFPPK [LMNA_Y481_Y481H] | NO
* MSSLFYANALF [HOXB7_Y6_T9A_YF] | NO
* YGPPQYNIQYS [ERBB2IP_Y977] | NO
* PGIRMYRVQYN [LRFN1_Y454_Q455R] | NO
* MSRDVYSTDFF [NTRK2_Y702_YF] | YES
* KNEKVYTRHGV [FLOT1_Y56_S52N] | NO
* TKDTFYKQPVF [GBA_Y451_M455V] | NO
* RDLHTYIMPAH [PNMT_Y256_R254H] | YES
* RQQEDYLLFKQ [RARRES1_Y159_YF] | YES
* PPVVNYEEDAR [FER_Y402] | NO
* LLANAYIFDVQ [L1CAM_Y418_V421D_YF] | YES
* ALMGLYHGQVL [HADHA_Y343] | YES
* WVYNHYRWIIW [BRCA2_Y2624] | NO
* FADIAYNFRHA [PAH_Y166_G171A_YF] | NO
* KPRKLYTIKKP [BRD2_Y715_P714L] | NO
* TFGVAYRAKDK [CDK11B_Y453_V452A_YF] | NO
* MFVKSYTIHFS [F5_Y2153_YF] | NO
* CKRQFYLYKGK [RSPO4_Y112] | NO
* LGGAMYYLEAD [PKHD1_Y452_E457D] | YES
* NTFEKYWPFFQ [GATM_Y103_YF] | YES
* LAVNPYGPPDP | NO
* NLMPAYHKCIQ [CYP21A2_Y190_Y191H] | NO
* YCVDCYKNFVA [FHL1_Y213] | NO
* DKNSSYFADWF [TUBB8_Y340_L345F] | YES

This collection of values is drawn from the supplement of paper PMC10065799.
